- Tested on: Danio rerio larvae (5 dpf)
- procedure-details: difference in startle response vs DMSO (percentage points); higher = stronger startle than DMSO
- test-parameters: 10 µM; exposure time 6 h
Where a name gives a salt, the structure may show the parent alone.
Assignment: determine reported difference in startle response for the given compounds.
Just the number, please, no unit attached.

*Q* Please look up its difference in startle response: CCN(C)C(=O)Oc1cccc([C@H](C)N(C)C)c1 [Rivastigmine (tartrate)]
*A* 4.99

*Q* Please look up its difference in startle response: C[N+]1(C)[C@@H]2C[C@@H](OC(=O)[C@H](CO)c3ccccc3)C[C@H]1[C@@H]1O[C@@H]12 [Methylscopolamine (bromide)]
*A* 0.0162

*Q* Please look up its difference in startle response: O=C(O)CCCc1ccc(N(CCCl)CCCl)cc1
*A* 1.74

*Q* Please look up its difference in startle response: CC(NC(C)(C)C)C(=O)c1cccc(Cl)c1 (stereo not drawn) [Bupropion (hydrochloride)]
*A* -4.01

*Q* Please look up its difference in startle response: COc1cc([C@@H]2c3cc4c(cc3[C@H](O)[C@H]3COC(=O)[C@H]23)OCO4)cc(OC)c1OC
*A* -7.15

*Q* Please look up its difference in startle response: COc1cc2c(c(OC)c1OC)-c1ccc(OC)c(=O)cc1[C@@H](NC(C)=O)CC2
*A* -0.112

*Q* Please look up its difference in startle response: NCC(CC(=O)O)c1ccc(Cl)cc1 (racemic) [(±)-Baclofen]
*A* 5.35

*Q* Please look up its difference in startle response: NCC1(CC(=O)O)CCCCC1
*A* 8.77

---

Assignment: determine reported difference in excitability for the given compounds.
- Tested on: Danio rerio larvae (5 dpf)
- procedure-details: difference in excitability vs DMSO (percentage points); higher = more excitable than DMSO
- test-parameters: 10 µM; exposure time 6 h
Structures can show the parent of a compound that is named as a salt.
Just the number, please, no unit attached.

*Q* Notebook: pull reported difference in excitability for Danio rerio larvae (5 dpf), entry Nc1ccncc1
*A* 5.12

*Q* Notebook: pull reported difference in excitability for Danio rerio larvae (5 dpf), entry C[N+]1(C)[C@@H]2C[C@@H](OC(=O)[C@H](CO)c3ccccc3)C[C@H]1[C@@H]1O[C@@H]12 [Methylscopolamine (bromide)]
*A* -2.02

*Q* Notebook: pull reported difference in excitability for Danio rerio larvae (5 dpf), entry O=C(O)CCCc1ccc(N(CCCl)CCCl)cc1
*A* 12.6

*Q* Notebook: pull reported difference in excitability for Danio rerio larvae (5 dpf), entry Cn1c(CCCC(=O)O)nc2cc(N(CCCl)CCCl)ccc21 [Bendamustine (hydrochloride)]
*A* 1.71

*Q* Notebook: pull reported difference in excitability for Danio rerio larvae (5 dpf), entry COc1cc([C@@H]2c3cc4c(cc3[C@H](O)[C@H]3COC(=O)[C@H]23)OCO4)cc(OC)c1OC
*A* 12.7

*Q* Notebook: pull reported difference in excitability for Danio rerio larvae (5 dpf), entry N.N.[Cl][Pt][Cl] [Cisplatin]
*A* -2.35

*Q* Notebook: pull reported difference in excitability for Danio rerio larvae (5 dpf), entry O=P1(N(CCCl)CCCl)NCCCO1 (stereo not drawn) [Cyclophosphamide (hydrate)]
*A* -1.55

*Q* Notebook: pull reported difference in excitability for Danio rerio larvae (5 dpf), entry CN(C)C(=O)Oc1cccc([N+](C)(C)C)c1 [Neostigmine (methyl sulfate)]
*A* -10.3

---

- Test system: Danio rerio larvae (5 dpf)
- procedure-details: difference in combined optomotor response to red, green and blue moving lines vs DMSO (percentage points); higher = stronger optomotor response than DMSO
- test-parameters: 10 µM; exposure time 6 h
Counter-ions that a name gives are not always drawn.
Assignment: determine reported difference for the given compounds.

*Q* Notebook: pull reported difference for Danio rerio larvae (5 dpf), entry C#CCN(C)[C@H](C)Cc1ccccc1 [R-(-)-Deprenyl (hydrochloride)]
*A* 1.17

*Q* Notebook: pull reported difference for Danio rerio larvae (5 dpf), entry C[N+]1(C)CCCC(OC(=O)C(O)(c2ccccc2)c2ccccc2)C1 (configuration not stated) [Mepenzolate (bromide)]
*A* -1.25

*Q* Notebook: pull reported difference for Danio rerio larvae (5 dpf), entry COc1ccc(C(CN(C)C)C2(O)CCCCC2)cc1 (configuration not stated) [Venlafaxine (hydrochloride)]
*A* -7.48

*Q* Notebook: pull reported difference for Danio rerio larvae (5 dpf), entry COc1cc2c(c(OC)c1OC)-c1ccc(OC)c(=O)cc1[C@@H](NC(C)=O)CC2
*A* 4.29

*Q* Notebook: pull reported difference for Danio rerio larvae (5 dpf), entry CC[C@@H](C(N)=O)N1CCCC1=O
*A* 4.89

*Q* Notebook: pull reported difference for Danio rerio larvae (5 dpf), entry O=C(O[C@H]1C[N+]2(CCCOc3ccccc3)CCC1CC2)C(O)(c1cccs1)c1cccs1 [Aclidinium (bromide)]
*A* -3.58

*Q* Notebook: pull reported difference for Danio rerio larvae (5 dpf), entry CC(=O)O[C@H]1C[C@@H]2CC[C@@H]3[C@H](CC[C@@]4(C)[C@H]3C[C@H]([N+]3(C)CCCCC3)[C@@H]4OC(C)=O)[C@@]2(C)C[C@@H]1[N+]1(C)CCCCC1 [Pancuronium (bromide hydrate)]
*A* 5.41

---

- Tested on: Danio rerio larvae (5 dpf)
- procedure-details: difference in excitability vs DMSO (percentage points); higher = more excitable than DMSO
- test-parameters: 10 µM; exposure time 6 h
Where a name gives a salt, the structure may show the parent alone.
value-kind: difference in excitability
Just the number, please, no unit attached.

*Q* Notebook: pull reported difference in excitability for Danio rerio larvae (5 dpf), entry NCC(CC(=O)O)c1ccc(Cl)cc1 (racemic) [(±)-Baclofen]
*A* -0.88

*Q* Notebook: pull reported difference in excitability for Danio rerio larvae (5 dpf), entry Nc1ncnc2c1ncn2CCOCP(=O)(O)O [Adefovir]
*A* -0.414

*Q* Notebook: pull reported difference in excitability for Danio rerio larvae (5 dpf), entry O=C(O[C@H]1C[N+]2(CCCOc3ccccc3)CCC1CC2)C(O)(c1cccs1)c1cccs1 [Aclidinium (bromide)]
*A* -0.582

*Q* Notebook: pull reported difference in excitability for Danio rerio larvae (5 dpf), entry CN1C[C@H](C(=O)N[C@]2(C)O[C@@]3(O)[C@@H]4CCCN4C(=O)[C@H](Cc4ccccc4)N3C2=O)C[C@@H]2c3cccc4[nH]cc(c34)C[C@H]21 [Dihydroergotamine (mesylate)]
*A* 16.4

*Q* Notebook: pull reported difference in excitability for Danio rerio larvae (5 dpf), entry O=C1CC[C@@]2(O)[C@H]3Cc4ccc(O)c5c4[C@@]2(CCN3CC2CC2)[C@H]1O5 [Naltrexone (hydrochloride)]
*A* 12.7

*Q* Notebook: pull reported difference in excitability for Danio rerio larvae (5 dpf), entry CC(NC(C)(C)C)C(=O)c1cccc(Cl)c1 (stereo not drawn) [Bupropion (hydrochloride)]
*A* -1.99

*Q* Notebook: pull reported difference in excitability for Danio rerio larvae (5 dpf), entry CC(C)N(CCC(C(N)=O)(c1ccccc1)c1ccccn1)C(C)C (stereo not drawn) [Disopyramide]
*A* 5.49

*Q* Notebook: pull reported difference in excitability for Danio rerio larvae (5 dpf), entry C=CCN1CC[C@]23c4c5ccc(O)c4O[C@H]2C(=O)CC[C@@]3(O)[C@H]1C5 [Naloxone (hydrochloride)]
*A* 12.1

---

Assignment: determine reported difference in startle response for the given molecules.
- Test system: Danio rerio larvae (5 dpf)
- procedure-details: difference in startle response vs DMSO (percentage points); higher = stronger startle than DMSO
- test-parameters: 10 µM; exposure time 6 h
Counter-ions that a name gives are not always drawn.

*Q* Notebook: pull reported difference in startle response for Danio rerio larvae (5 dpf), entry Cn1c(CCCC(=O)O)nc2cc(N(CCCl)CCCl)ccc21 [Bendamustine (hydrochloride)]
*A* -1.73

*Q* Notebook: pull reported difference in startle response for Danio rerio larvae (5 dpf), entry O=C(O[C@H]1C[N+]2(CCCOc3ccccc3)CCC1CC2)C(O)(c1cccs1)c1cccs1 [Aclidinium (bromide)]
*A* -8.56

*Q* Notebook: pull reported difference in startle response for Danio rerio larvae (5 dpf), entry COc1ccc(C(CN(C)C)C2(O)CCCCC2)cc1 (centres undefined) [Venlafaxine (hydrochloride)]
*A* -10.3

*Q* Notebook: pull reported difference in startle response for Danio rerio larvae (5 dpf), entry C=CCN1C[C@H](C(=O)N(CCCN(C)C)C(=O)NCC)C[C@@H]2c3cccc4[nH]cc(c34)C[C@H]21 [Cabergoline]
*A* -8.8

---

Assignment: determine reported difference in startle response for the given compounds.
- System: Danio rerio larvae (5 dpf)
- procedure-details: difference in startle response vs DMSO (percentage points); higher = stronger startle than DMSO
- test-parameters: 10 µM; exposure time 6 h
Counter-ions that a name gives are not always drawn.

*Q* Please look up its difference in startle response: Nc1ncnc2c1ncn2CCOCP(=O)(O)O
*A* 3.47

*Q* Please look up its difference in startle response: CCOC(=O)c1cncn1[C@H](C)c1ccccc1 [Etomidate]
*A* 15.9

*Q* Please look up its difference in startle response: CC(C)N(CCC(C(N)=O)(c1ccccc1)c1ccccn1)C(C)C (stereo not given) [Disopyramide]
*A* -1.52

*Q* Please look up its difference in startle response: C[C@]12CC[C@H](O)CC1=CC[C@@H]1[C@@H]2CC[C@]2(C)C(=O)CC[C@@H]12 [Dehydroepiandrosterone]
*A* -2.18

*Q* Please look up its difference in startle response: N[C@@H]1C[C@H]1c1ccccc1 [Tranylcypromine (hydrochloride)]
*A* -7.1

*Q* Please look up its difference in startle response: CC(O)(CS(=O)(=O)c1ccc(F)cc1)C(=O)Nc1ccc(C#N)c(C(F)(F)F)c1 (stereo not given) [Bicalutamide]
*A* 4.36

*Q* Please look up its difference in startle response: C=CCN1CC[C@]23c4c5ccc(O)c4O[C@H]2C(=O)CC[C@@]3(O)[C@H]1C5 [Naloxone (hydrochloride)]
*A* -4.15

*Q* Please look up its difference in startle response: CC1=C[C@]23C(=O)[C@@H](C=C(CO)[C@@H](O)[C@]2(O)[C@H]1O)[C@H]1[C@@H](C[C@H]3C)C1(C)C
*A* 2.54

*Q* Please look up its difference in startle response: C=CCN1CC[C@]23c4c5ccc(O)c4O[C@H]2[C@@H](OCCOCCOCCOCCOCCOCCOCCOC)CC[C@@]3(O)[C@H]1C5 [Naloxegol (oxalate)]
*A* 1.93

*Q* Please look up its difference in startle response: C[N@+]1(CC2CC2)CC[C@]23c4c5ccc(O)c4O[C@H]2C(=O)CC[C@@]3(O)[C@H]1C5 [Methylnaltrexone (bromide)]
*A* -0.955

*Q* Please look up its difference in startle response: CC(N)Cc1ccc(O)cc1 (stereo not given) [4-hydroxy Amphetamine (hydrochloride)]
*A* -1.49

*Q* Please look up its difference in startle response: O=C1CC[C@@]2(O)[C@H]3Cc4ccc(O)c5c4[C@@]2(CCN3CC2CC2)[C@H]1O5 [Naltrexone (hydrochloride)]
*A* 5.18

*Q* Please look up its difference in startle response: CC(C)C[C@H]1C(=O)N2CCC[C@H]2[C@]2(O)O[C@](NC(=O)[C@@H]3C=C4c5cccc6[nH]c(Br)c(c56)C[C@H]4N(C)C3)(C(C)C)C(=O)N12 [Bromocriptine (mesylate)]
*A* -1.2

*Q* Please look up its difference in startle response: CN(C)C(=O)Oc1ccc[n+](C)c1 [Pyridostigmine (bromide)]
*A* -2.73

*Q* Please look up its difference in startle response: O=c1[nH]c2ccccc2n1C1CCN(CCCC(c2ccc(F)cc2)c2ccc(F)cc2)CC1 [Pimozide]
*A* 7.75
